Molecular target: Endothelial lipase (EL) (Homo sapiens (Human), UniProt Q9Y5X9)
Sequence (Q9Y5X9 21-500): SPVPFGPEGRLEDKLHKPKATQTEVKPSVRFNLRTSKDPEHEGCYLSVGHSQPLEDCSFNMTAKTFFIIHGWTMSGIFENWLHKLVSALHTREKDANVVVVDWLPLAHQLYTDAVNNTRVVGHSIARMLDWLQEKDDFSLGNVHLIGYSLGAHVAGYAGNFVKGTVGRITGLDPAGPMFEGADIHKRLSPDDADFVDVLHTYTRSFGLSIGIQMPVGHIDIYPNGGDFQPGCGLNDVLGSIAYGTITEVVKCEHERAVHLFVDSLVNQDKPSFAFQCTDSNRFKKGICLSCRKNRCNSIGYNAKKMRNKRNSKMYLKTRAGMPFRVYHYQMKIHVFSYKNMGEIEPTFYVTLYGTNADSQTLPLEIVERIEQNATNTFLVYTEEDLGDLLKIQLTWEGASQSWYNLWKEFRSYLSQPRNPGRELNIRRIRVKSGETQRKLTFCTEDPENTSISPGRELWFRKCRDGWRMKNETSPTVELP
Assay: Endothelial lipase (EL) enzymatic assay with fluorescent substrate A10070 in DMPG vesicles
Assay type: biochemical
Rule: measured IC50 below 0.01 µM gets condition met; anything equal to or greater than 0.01 µM gets condition not met.

Please review the entries below; each comes with its answer.
COCCNC(=O)c1ccc(-c2ccc3nc(C(C(=O)NCC(=O)NC4CC4)S(=O)(=O)CCOC)sc3c2)cc1OC (centres unmarked)	condition not met
COCCS(=O)(=O)C(C(=O)NCC(=O)NC1CC1)c1nc2ccc(-c3ccnc(F)c3)cc2s1 (centres unmarked)	condition not met
COC(=O)Nc1ccc(-c2cc3nc(C(C(=O)NCC(=O)NC4CC4)S(C)(=O)=O)sc3cc2F)cc1F (centres unmarked)	condition met
Cc1ccc(-c2cc3sc(C(C(=O)NCC(=O)NC4CC4)S(=O)(=O)C(C)C)nc3cc2F)cn1 (centres unmarked)	condition not met

Okay, now this compound:
# check: IC50 < 0.01 µM for CC(C)S(=O)(=O)C(C(=O)NCC(=O)NC1CC1)c1nc2cc(F)c(-c3cn(C)c(=O)c4ccccc34)cc2s1 (centres unmarked)
condition not met

====

Biological target: Endothelial lipase (EL) (Homo sapiens (Human))
Experiment: Endothelial lipase (EL) enzymatic assay with fluorescent substrate A10070 in DMPG vesicles
Type: biochemical
I'd be grateful if you could share measured pIC50 for these entries.
Give bare numbers, as −log10 of the molar value.

# annotated cases, reported pIC50 shown
CC(C)S(=O)(=O)C(C(=O)NCC(=O)NC1CC1)c1nc2cc(-c3ccc4c(c3)CC(=O)N4)c(F)cc2s1 (stereo not drawn)	7.42
COCCS(=O)(=O)C(C(=O)NCC(=O)NC1CC1)c1nc2cc(-c3ccnc(C)c3)ccc2s1 (stereo not drawn)	7.62
CC(C)(C)OC(=O)N1CCC(S(=O)(=O)C(C(=O)NCC(=O)NC2CC2)c2nc3ccc(-c4ccc(F)nc4)cc3s2)CC1 (stereo not drawn)	7.11
CS(=O)(=O)C(C(=O)NCC(=O)NC1CC1)c1nc2cc(F)c(-c3ccc(-c4ccccc4)nc3)cc2s1 (stereo not drawn)	8.52
COCCS(=O)(=O)C(C(=O)NCC(=O)NC1CC1)c1nc2cc(C(=O)OC(C)(C)C)c(F)cc2s1 (stereo not drawn)	7.92

Count: 4. Required value per item: pIC50.
1. COCCS(=O)(=O)C(C(=O)NCC(=O)NC1CC1)c1nc2ccc(-c3ccc4c(c3)CNC4=O)cc2s1 (stereo not drawn)
2. O=C(CNC(=O)C(c1nc2cc(-c3cncnc3)ccc2s1)S(=O)(=O)c1ccccc1)NC1CC1 (stereo not drawn)
3. O=C(CNC(=O)C(c1nc2ccc(-c3ccc4c(c3)CNC4=O)cc2s1)S(=O)(=O)c1ccc(F)cc1)NC1CC1 (stereo not drawn)
4. CS(=O)(=O)C(C(=O)NCC(=O)NC1CC1)c1nc2cc(F)c(-c3ccc4c(c3)CC(=O)N4)cc2s1 (stereo not drawn)

1: 8.05; 2: 7.92; 3: 8.05; 4: 8.30

====

I'd be grateful if you could share measured log10 of IC50 for these entries.
Biological target: Endothelial lipase (EL) (Homo sapiens (Human))
Experiment: Endothelial lipase (EL) enzymatic assay with fluorescent substrate A10070 in DMPG vesicles
Assay type: biochemical
Use the decimal logarithm of IC50 (nM).

# annotated cases, reported log10 of IC50 shown
CC(C)OC(=O)Nc1ccc(-c2cc3sc(C(C(=O)NCC(=O)NC4CC4)S(C)(=O)=O)nc3cc2F)cc1 (stereo not drawn) [Example 539]	0.00
COCCS(=O)(=O)C(C(=O)NCC(=O)NC1CC1)c1nc2ccc(-c3ccc(N(C)C(=O)OC)cc3)cc2s1 (stereo not drawn) [Example 25]	0.85
COCCS(=O)(=O)C(C(=O)NCC(=O)NC1CC1)c1nc2cc(F)c(-c3ccc(C4CC4)nc3)cc2s1 (stereo not drawn) [Example 159]	1.08
COCCS(=O)(=O)C(C(=O)NCC(=O)NC1CC1)c1nc2cc(F)c(-c3ccc(NC(=O)OCc4ccccc4)nc3)cc2s1 (stereo not drawn) [Example 551]	0.00

Count: 4. Required value per item: log10 of IC50.
1. O=C(CNC(=O)C(c1nc2ccc(-c3cncnc3)cc2s1)S(=O)(=O)Cc1ccc(F)cc1)NC1CC1 (stereo not drawn) [Example 517]
2. COCCS(=O)(=O)C(C(=O)NCC(=O)NC1CC1)c1nc2cc(C(F)(F)F)c(-c3ccc(=O)n(C(C)C)c3)cc2s1 (stereo not drawn) [Example 188]
3. COCCS(=O)(=O)C(C(=O)NCC(=O)NCCOC(C)C)c1nc2cc(-c3ccc(F)nc3)c(F)cc2s1 (stereo not drawn) [Example 352]
4. CS(=O)(=O)C(C(=O)NCC(=O)NC1CC1)c1nc2ccc(-c3ccc(C(=O)NCC(F)(F)F)cc3)cc2s1 (stereo not drawn) [Example 103]

1. 2.07
2. 1.57
3. 1.15
4. 1.30

Count: 6. Required value per item: log10 of IC50.
1. COCCS(=O)(=O)C(C(=O)NCC(=O)NC1CC1)c1nc2cc(C)c(-c3ccc(F)nc3)cc2s1 (stereo not drawn) [Example 185]
2. COCCS(=O)(=O)C(C(=O)NCC(=O)NC1CC1)c1nc2ccc(-c3cccc(F)n3)cc2s1 (stereo not drawn) [Example 314]
3. COC(=O)Nc1ccc(-c2ccc3nc(C(C(=O)NCC(=O)NC4CC4)S(C)(=O)=O)sc3c2)cc1 (stereo not drawn) [Example 95]
4. COCCS(=O)(=O)C(C(=O)NCC(=O)NC1CC1)c1nc2cc(-c3ccc(NC(=O)OC)cc3)ccc2s1 (stereo not drawn) [Example 104]
5. COCCS(=O)(=O)C(C(=O)NCC(=O)NC1(c2ccccn2)CC1)c1nc2ccc(-c3ccc(F)nc3)cc2s1 (stereo not drawn) [Example 388]
6. COCCS(=O)(=O)C(C(=O)NCC(=O)NC1CC1)c1nc2cc(-c3cncnc3)ccc2s1 (stereo not drawn) [Example 335]

[0.60, 2.18, 0.30, 1.45, 1.68, 1.20]

Count: 2. Required value per item: log10 of IC50.
1. O=C(CNC(=O)C(c1nc2c(F)cc(-c3cncnc3)cc2s1)S(=O)(=O)c1ccc(F)cc1)NC1CC1 (stereo not drawn) [Example 474]
2. COC(=O)N(C)c1ccc(-c2cc3sc(C(C(=O)NCC(=O)NC4CC4)S(=O)(=O)CCC(F)(F)F)nc3cc2F)cc1 (stereo not drawn) [Example 33]

[2.06, 0.60]

====

Biological target: Endothelial lipase (EL) (Homo sapiens (Human))
Assay: Endothelial lipase (EL) enzymatic assay with fluorescent substrate A10070 in DMPG vesicles
Type: biochemical
I'd be grateful if you could share measured pIC50 for these entries.
Give bare numbers, as −log10 of the molar value.

# annotated cases, reported pIC50 shown
COCCNC(=O)c1ccc(-c2ccc3nc(C(C(=O)NCC(=O)NC4CC4)S(=O)(=O)c4ccccc4)sc3c2)cc1 (stereo not shown)	8.52
Cc1nc2cc(-c3cc4sc(C(C(=O)NCC(=O)NC5CC5)S(=O)(=O)C(C)C)nc4cc3F)ccc2s1 (stereo not shown)	8.30
CN1C(=O)Cc2cc(-c3cc4sc(C(C(=O)NCC(=O)NC5CC5)S(C)(=O)=O)nc4cc3F)ccc21 (stereo not shown)	8.05
COCCS(=O)(=O)C(C(=O)NCC(=O)NC1CC1)c1nc2cc(-c3ccc(F)nc3)ccc2s1 (stereo not shown)	7.89
CC(C)S(=O)(=O)C(C(=O)NCC(=O)NC1CC1)c1nc2cc(F)c(-c3ccc4c(c3)C(=O)NC4)cc2s1 (stereo not shown)	7.80

Count: 4. Required value per item: pIC50.
1. COCCNC(=O)c1ccc(-c2ccc3sc(C(C(=O)NCC(=O)NC4CC4)S(=O)(=O)CCOC)nc3c2)cc1 (stereo not shown)
2. O=C(CNC(=O)C(c1nc2cc(F)c(-c3ccc(NC(=O)OCc4ccccc4)nc3)cc2s1)S(=O)(=O)CCC(F)(F)F)NC1CC1 (stereo not shown)
3. CN(C)S(=O)(=O)C(C(=O)NCC(=O)NC1CC1)c1nc2c(F)cc(-c3ccc(NC(=O)OCc4ccccc4)cc3)cc2s1 (stereo not shown)
4. O=C(CNC(=O)C(c1nc2cc(F)c(-c3cnc(-n4cccn4)nc3)cc2s1)S(=O)(=O)CCC(F)(F)F)NC1CC1 (stereo not shown)

[7.82, 8.52, 8.70, 7.19]

get_value(item= N#CCS(=O)(=O)C(C(=O)NCC(=O)NC1CC1)c1nc2cc(F)c(-c3ccc(NC(=O)OCc4ccccc4)cc3)cc2s1 (stereo not shown) , readout=pIC50) returns 8.70

====

Target: Endothelial lipase (EL) (Homo sapiens (Human), UniProt Q9Y5X9)
Test: Endothelial lipase (EL) enzymatic assay with fluorescent substrate A10070 in DMPG vesicles
Format: biochemical
READOUT_LABEL: IC50 (nM)
Give bare numbers, in nM.

# annotated cases, reported IC50 shown
CC(C)n1cc(-c2cc3sc(C(C(=O)NCC(=O)NC4CC4)S(C)(=O)=O)nc3cc2OC(F)F)ccc1=O (stereo not drawn)	4
COCCS(=O)(=O)C(C(=O)NCC(=O)NC1CC1)c1nc2ccc(-c3ccc(-c4nnc(C)o4)cc3)cc2s1 (stereo not drawn)	9
O=C(CNC(=O)C(c1nc2cc(F)c(-c3cccc(NC(=O)OCc4ccccc4)c3)cc2s1)S(=O)(=O)CCC(F)(F)F)NC1CC1 (stereo not drawn)	1

Count: 6. Required value per item: IC50.
1. COCCS(=O)(=O)C(C(=O)NCC(=O)NC1CC1)c1nc2ccc(-c3cnc(C(F)(F)F)nc3)cc2s1 (stereo not drawn)
2. COCCS(=O)(=O)C(C(=O)NCC(=O)NC1CC1)c1nc2cc(-c3ccc(C(=O)N4CCOCC4)cc3)ccc2s1 (stereo not drawn)
3. COCCS(=O)(=O)C(C(=O)NCC(=O)NC1CC1)c1nc2cc(F)c(-c3ccc(-c4nnn(C)n4)cc3)cc2s1 (stereo not drawn)
4. COCCS(=O)(=O)C(C(=O)NCC(=O)NC1CC1)c1nc2cc(F)c(-c3cccc(Cl)c3)cc2s1 (stereo not drawn)
5. N#Cc1cccc(CS(=O)(=O)C(C(=O)NCC(=O)NC2CC2)c2nc3ccc(-c4ccc(F)nc4)cc3s2)c1 (stereo not drawn)
6. Cc1ccc(-c2cc3nc(C(C(=O)NCC(=O)NC4CC4)S(=O)(=O)C(C)C)sc3cc2F)cn1 (stereo not drawn)

[155, 38, 9, 3, 46, 10]

Source of measurements: patent US10173991B2
